Parameter: AB-3167 (MIC). Scope: all listed entries.
- Test system: Acinetobacter baumanii/haemolyticus: Multidrug-resistant clinical isolate (AB-3167)
- MEASUREMENT_DESCRIPTION: MIC determination (CLSI), strain AB-3167
- Type: cell-based
- CONDITION_LABEL: unit assumed

A selection of reference data follows.
{"COMPOUND": "CC(CCn1ccc(OCCCC2CCCCC2)cc1=O)(C(=O)NO)S(C)(=O)=O (stereo not shown)", "ASSAY_TARGET": "Acinetobacter baumanii/haemolyticus: Multidrug-resistant clinical isolate (AB-3167)", "REPORTED_MEASUREMENT": "2 µg/mL"}
{"COMPOUND": "CC(CCn1ccc(-c2ccc(OC3CC(CO)C3)cc2)cc1=O)(C(=O)NO)S(C)(=O)=O (stereo not shown)", "ASSAY_TARGET": "Acinetobacter baumanii/haemolyticus: Multidrug-resistant clinical isolate (AB-3167)", "REPORTED_MEASUREMENT": "64 µg/mL"}
{"COMPOUND": "C[C@@](CCn1ccc(-c2ccc(N3CCC(CO)CC3)cc2)cc1=O)(C(=O)NO)S(C)(=O)=O", "ASSAY_TARGET": "Acinetobacter baumanii/haemolyticus: Multidrug-resistant clinical isolate (AB-3167)", "REPORTED_MEASUREMENT": "> 64 µg/mL"}

Next compound, AB-3167 (MIC) to be filled in.
Need AB-3167 (MIC) of C[C@@](CCn1ccc(-c2ccc3ccccc3c2)cc1=O)(C(=O)NO)S(C)(=O)=O , thanks.
> 64 µg/mL

----------
Known AB-3167 (MIC) of a selection of compounds
- Tested on: Acinetobacter baumanii/haemolyticus: Multidrug-resistant clinical isolate (AB-3167)
- MEASUREMENT_DESCRIPTION: MIC determination (CLSI), strain AB-3167
- Format: cell-based
- CONDITION_LABEL: unit assumed

Worked examples, 5 compounds total:
{"COMPOUND": "CCC(=O)c1ccc(-c2ccn(CC[C@](C)(C(=O)NO)S(C)(=O)=O)c(=O)c2)cc1", "AB-3167 (MIC)": "> 64 µg/mL"}
{"COMPOUND": "C[C@@](CCn1ccc(-c2ccc(Cl)cc2F)cc1=O)(C(=O)NO)S(C)(=O)=O", "AB-3167 (MIC)": "> 64 µg/mL"}
{"COMPOUND": "CC1(O)CCC(Oc2ccc(-c3ccn(CC[C@](C)(C(=O)NO)S(C)(=O)=O)c(=O)c3)cc2)CC1 (stereo partly shown) [Example 10-A]", "AB-3167 (MIC)": "> 64 µg/mL"}
{"COMPOUND": "Cc1ncc(-c2ccc(-c3ccn(CC[C@](C)(C(=O)NO)S(C)(=O)=O)c(=O)c3)cc2)cn1", "AB-3167 (MIC)": "> 64 µg/mL"}
{"COMPOUND": "C[C@@](CCn1ccc(/C=C/c2ccccc2)cc1=O)(C(=O)NO)S(C)(=O)=O", "AB-3167 (MIC)": "64 µg/mL"}

Provide the documented AB-3167 (MIC) with Acinetobacter baumanii/haemolyticus: Multidrug-resistant clinical isolate (AB-3167) as the system for CC1(O)CCC(Oc2ccc(-c3ccn(CC[C@](C)(C(=O)NO)S(C)(=O)=O)c(=O)c3)cc2)CC1 (stereo partly shown) [Example 10-G]
64 µg/mL

Param readout = AB-3167 (MIC); param system = Acinetobacter baumanii/haemolyticus: Multidrug-resistant clinical isolate (AB-3167); param query = C[C@@](CCn1ccc(-c2ccc(-n3nccn3)cc2)cc1=O)(C(=O)NO)S(C)(=O)=O ; response: value
> 64 µg/mL
